- TARGET: histamine H1 receptor (Homo sapiens, UniProt P35367)
- Sequence (P35367 whole entry): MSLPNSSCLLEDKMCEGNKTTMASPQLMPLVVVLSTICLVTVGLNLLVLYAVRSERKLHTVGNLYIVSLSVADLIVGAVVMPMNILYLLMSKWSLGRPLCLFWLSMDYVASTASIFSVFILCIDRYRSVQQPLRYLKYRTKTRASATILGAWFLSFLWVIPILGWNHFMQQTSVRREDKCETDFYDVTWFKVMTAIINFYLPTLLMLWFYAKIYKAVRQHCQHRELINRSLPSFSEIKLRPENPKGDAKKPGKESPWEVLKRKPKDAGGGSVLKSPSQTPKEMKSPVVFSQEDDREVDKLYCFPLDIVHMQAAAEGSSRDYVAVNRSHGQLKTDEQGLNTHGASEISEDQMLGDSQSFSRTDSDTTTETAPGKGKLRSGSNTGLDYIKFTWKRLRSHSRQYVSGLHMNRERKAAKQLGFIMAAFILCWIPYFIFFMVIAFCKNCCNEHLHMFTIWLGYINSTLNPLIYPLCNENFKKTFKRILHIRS
- ASSAY NOTES: cell-based
pEC50: −log10 of the molar value.

{"columns": ["STRUCTURE NOTATION", "TARGET", "pEC50"],
 "data": [
  ["NCCc1c[nH]c2ccc(O)cc12", "histamine H1 receptor (Homo sapiens, UniProt P35367)", "< 5.00"]
]}

---

- TARGET: UniProt P28223
- Sequence (P28223 whole entry): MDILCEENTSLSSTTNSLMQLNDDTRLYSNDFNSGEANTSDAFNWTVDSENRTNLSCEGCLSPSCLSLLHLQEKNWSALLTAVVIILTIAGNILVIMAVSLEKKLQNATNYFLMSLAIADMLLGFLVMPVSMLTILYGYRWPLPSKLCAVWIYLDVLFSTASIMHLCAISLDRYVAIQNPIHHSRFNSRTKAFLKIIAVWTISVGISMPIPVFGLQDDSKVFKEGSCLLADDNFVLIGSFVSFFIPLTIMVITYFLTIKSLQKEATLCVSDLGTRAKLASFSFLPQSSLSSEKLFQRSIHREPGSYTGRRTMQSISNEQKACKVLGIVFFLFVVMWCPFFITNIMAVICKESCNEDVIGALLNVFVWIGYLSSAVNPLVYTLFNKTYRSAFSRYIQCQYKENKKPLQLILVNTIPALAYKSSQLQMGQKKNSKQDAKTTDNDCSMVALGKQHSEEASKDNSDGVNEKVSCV
- ASSAY NOTES: CRE-Luc reporter gene functional assay in CHO-5HT2A cells
- REPORTED CONDITIONS: agonist mode, luciferase activity, 0.1 nM to 10,000 nM

{"columns": ["STRUCTURE NOTATION", "TARGET", "EC50"],
 "data": [
  ["NCCc1c[nH]cn1", "UniProt P28223", "> 10 µM"]
]}
